# assay target: androgen receptor (AR-LBD) (Rattus norvegicus)
# Construct: 5 μL of 2×AR-LBD/Fluoromone AL Red Complex contained in the kit; purchased Invitrogen
# Sequence (P15207 651-882 limits assumed): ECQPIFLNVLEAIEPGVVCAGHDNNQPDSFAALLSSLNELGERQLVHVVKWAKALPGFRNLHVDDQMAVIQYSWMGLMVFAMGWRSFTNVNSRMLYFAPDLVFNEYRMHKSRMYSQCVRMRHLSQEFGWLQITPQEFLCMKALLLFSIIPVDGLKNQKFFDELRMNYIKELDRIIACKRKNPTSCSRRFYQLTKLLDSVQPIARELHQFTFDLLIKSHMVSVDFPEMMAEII
# assay summary: Evaluation of androgen receptor affinity (PolarScreen Androgen Receptor Competitor Assay Kit, Red; fluorescence polarization)
# assay setup: 22° C. for 5 hours, relative to binding rate of 1 μM DHT, read-out: AR affinity (pEC50) (converted)
We label by threshold. Values of EC50 strictly beneath 300 nM are class 1. Values of 300 nM and up are class 0.

INSERT INTO results (molecule, assay_target, category) VALUES
  ('Cc1sc(N(C[C@@H]2CCCC[C@@H](O)C2)c2ccc(C#N)cc2)nc1C(=O)NS(C)(=O)=O (racemic)', 'androgen receptor (AR-LBD) (Rattus norvegicus)', 'class 0'),
  ('Cc1sc(N(Cc2ccc3c(c2)C(O)CCO3)c2ccc(C#N)cc2)nc1C(=O)NS(C)(=O)=O (stereo not shown)', 'androgen receptor (AR-LBD) (Rattus norvegicus)', 'class 1'),
  ('Cc1sc(N(Cc2ccc(C#N)cc2)c2ccc(C#N)cc2)nc1C(=O)NS(C)(=O)=O', 'androgen receptor (AR-LBD) (Rattus norvegicus)', 'class 1'),
  ('COc1ccccc1CN(c1ccc(C#N)cc1)c1nc(C(=O)NS(C)(=O)=O)c(Cl)s1', 'androgen receptor (AR-LBD) (Rattus norvegicus)', 'class 1'),
  ('Cc1sc(N(CCC2CCCCC2)Cc2ccc(OC(F)(F)F)cc2)nc1C(=O)NS(=O)(=O)C(F)(F)F', 'androgen receptor (AR-LBD) (Rattus norvegicus)', 'class 0'),
  ('COCCOCCCS(=O)(=O)NC(=O)c1nc(N(Cc2ccc(OC(F)(F)F)cc2)c2ccc(C#N)cc2)sc1C', 'androgen receptor (AR-LBD) (Rattus norvegicus)', 'class 0'),
  ('Cc1sc(N(C[Si](C)(C)c2ccccc2)c2ccc(C#N)cc2)nc1C(=O)NS(C)(=O)=O', 'androgen receptor (AR-LBD) (Rattus norvegicus)', 'class 0');

* * *

# assay target: androgen receptor (AR-LBD) (Rattus norvegicus)
# Construct: 5 μL of 2×AR-LBD/Fluoromone AL Red Complex contained in the kit; purchased Invitrogen
# assay summary: Evaluation of androgen receptor affinity (PolarScreen Androgen Receptor Competitor Assay Kit, Red; fluorescence polarization)
# assay setup: 22° C. for 5 hours, relative to binding rate of 1 μM DHT, read-out: AR affinity (pEC50) (converted)
Here the recorded EC50 is given for each entry.
readout: EC50 (nM)

INSERT INTO measurements (compound, readout_unit, relation_symbol, reading) VALUES
  ('Cc1sc(N(Cc2ccccc2O)c2ccc(C#N)cc2)nc1C(=O)NS(C)(=O)=O', 'nM', '=', 100),
  ('Cc1sc(N(Cc2ccccc2)c2ccc(C#N)cc2F)nc1C(=O)NS(C)(=O)=O', 'nM', '=', 79.4),
  ('Cc1sc(N(Cc2ccc(OC(F)F)c(Cl)c2)c2ccc(C#N)cc2)nc1C(=O)NS(C)(=O)=O', 'nM', '=', 20),
  ('COc1ccc(CCN(Cc2ccccc2)c2nc(C(=O)NS(C)(=O)=O)c(C)s2)cc1OC', 'nM', '>', 2000),
  ('Cc1sc(N(Cc2ccccc2)c2ccc(OC(F)F)cc2)nc1C(=O)NS(C)(=O)=O', 'nM', '=', 100),
  ('Cc1sc(N(Cc2cc(F)cc3cccnc23)c2ccc(C#N)cc2)nc1C(=O)NS(C)(=O)=O', 'nM', '=', 100),
  ('Cc1sc(N(CC2CCCOC2)c2ccc(C#N)cc2)nc1C(=O)NS(C)(=O)=O (centres unmarked)', 'nM', '>', 2000),
  ('Cc1oc(N(CCc2ccc(C#N)cc2)Cc2ccc(F)cc2)nc1C(=O)NS(C)(=O)=O', 'nM', '=', 79.4);
